Experiment: NCI Yeast Anticancer Drug Screen. Data for the rad50 strain (AID 155);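 also: 0% = growth of vehicle-only cultures of the same strain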
Conditions: S. cerevisiae rad50 strain growth inhibition; at 50.0 µM; active compounds read high
Compounds without any hit were thinned out: in the full panel of roughly 79,000, 15% have a hit.
Recorded growth inhibition values for a group of compounds are listed next.
Report as a plain number; the unit % is understood.

compound: COc1ccc(S(=O)(=O)F)cc1NC(=O)CCc1ccc(N2C(N)=NC(N)=NC2(C)C)cc1Cl
units: %
growth inhibition: 79.8

compound: CN(C)C(=S)Oc1cc(Cl)c(S(=O)(=O)F)cc1Cl
units: %
growth inhibition: 99.5

## Task Return the recorded growth inhibition value; entry: O=S1(=O)CCCCO1
## Result -6

## Task Return the recorded growth inhibition value; entry: CC1CC[Si](C)(C)CC12C(=O)NC(=O)NC2=O (configuration not stated)
## Result 6.65

## Task Return the recorded growth inhibition value; entry: C=CCCCCCCCCC(=O)Nc1ccc(Cl)cc1C(=O)c1ccccc1
## Result -2.3

----------
Assay: NCI Yeast Anticancer Drug Screen. Data for the mec2-1 strain (AID 157)
Details: S. cerevisiae mec2-1 strain, at 50.0 µM, active compounds read high
The panel holds about 79,000 compounds, 15% with a hit somewhere; the sample as a whole holds those more often.
Recorded growth inhibition values for a group of compounds are listed next.
Report as a plain number; the unit % is understood.

Examples from the recorded data:
compound: C=C(Nc1nc2ccc(C)cc2s1)C(=O)C(CC)C(=O)C(CC)CC1C(=O)NC(=O)NC1=O (centres undefined)
result-type: growth inhibition
units: %
measured-number: -13.6
--
compound: O=C(O)C(=O)O.[Co].[NH-]CC[NH-].[NH-]CC[NH-]
result-type: growth inhibition
units: %
measured-number: 13.4
--
compound: Cn1nnc(-c2nnn(C)n2)n1
result-type: growth inhibition
units: %
measured-number: -12.5

Now let's try a different one.
## Task Return the recorded growth inhibition value; entry: NC(=O)c1cc([N+](=O)[O-])c(N(CCCl)CCCl)c([N+](=O)[O-])c1
## Result 17.1

----------
Assay: NCI Yeast Anticancer Drug Screen. Data for the sgs1 mgt1 strain (AID 161);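 also: 0% = growth of cultures given vehicle only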
Conditions: S. cerevisiae sgs1 mgt1 strain, at 50.0 µM, active compounds read high
The panel holds about 79,000 compounds, 15% with a hit somewhere; the sample as a whole holds those more often.
result-type: growth inhibition (%)
Report as a plain number; the unit % is understood.

Examples from the recorded data:
compound: O=C(CCBr)Nc1ccc(Cl)cc1C(=O)c1ccccc1
units: %
growth inhibition: 10.2

compound: CC(C)NC(=O)N1C2C3CCC(C)(OC3(C)C)C21 (stereo unspecified)
units: %
growth inhibition: 3.7

compound: Cc1ncc([N+](=O)[O-])n1C(C)C(=O)Nc1ccc(N(CCCl)CCCl)cc1 (stereo unspecified)
units: %
growth inhibition: 3.5

compound: CC(=O)[O-].CC(=O)[O-].O=C(N/N=C/c1cc(Cl)cc(Cl)c1O)c1ccncc1.[Ni+2]
units: %
growth inhibition: 19.1

compound: CC1(C)N=C(N)N=C(N)N1c1ccc(CCCCCCc2ccc(S(=O)(=O)F)cc2)cc1
units: %
growth inhibition: 99.5

compound: O=C(NC(CCS(=O)(=O)NCc1ccc(S(=O)(=O)F)cc1)C(=O)OCc1ccccc1)OCc1ccccc1 (stereo unspecified)
units: %
growth inhibition: 16.6

compound: CCOP(=O)(OCC)/C(C#N)=C/c1cccc(OC)c1
units: %
growth inhibition: 45.6

compound: CCOP(=O)(OCC)Oc1c(Cl)c(Cl)c(Cl)c(Cl)c1Cl
units: %
growth inhibition: 86

compound: CCCCC1(CCC)C(=O)NC(=O)NC1=O
units: %
growth inhibition: 1

compound: COc1cc(N(CCCl)CCCl)c(OC)cc1C=Nc1cccc(Cl)c1
units: %
growth inhibition: 44.4

## Task Return the recorded growth inhibition value; entry: O=NN1CCCNCC1
## Result -4.65

## Task Return the recorded growth inhibition value; entry: O=C1NC(=O)C(CCO)(c2ccccc2)C(=O)N1
## Result -4.4

## Task Return the recorded growth inhibition value; entry: Cc1ccc2nc(CCl)[nH]c2c1
## Result 34

## Task Return the recorded growth inhibition value; entry: CCC1(O)CC(OC2CC(N(C)C)C(OC3CC(O)C(OC4CCC(=O)C(C)O4)C(C)O3)C(C)O2)c2c(cc3c(c2O)C(=O)c2c(O)ccc(O)c2C3=O)C1C(=O)OC (stereo unspecified)
## Result 90.5

## Task Return the recorded growth inhibition value; entry: CC(C)N(C(C)C)[PH+]1O[PH+](N(C(C)C)C(C)C)O[PH+](N(C(C)C)C(C)C)O[PH+](N(C(C)C)C(C)C)O[PH+](N(C(C)C)C(C)C)O1.[C-]#[O+].[C-]#[O+].[C-]#[O+].[C-]#[O+].[C-]#[O+].[C-]#[O+].[C-]#[O+].[Cr].[Cr] (stereo unspecified)
## Result -14.5

## Task Return the recorded growth inhibition value; entry: CO[C@H](C)[C@](O)(C(=O)OCC1=CC[N+]2([O-])CC[C@H](O)[C@@H]12)C(C)C (stereo partly specified)
## Result 2.35

----------
Assay: NCI Yeast Anticancer Drug Screen. Data for the mlh1 rad18 strain (AID 175)
Conditions: S. cerevisiae mlh1 rad18 strain growth inhibition; at 50.0 µM; active compounds read high
The panel holds about 79,000 compounds, 15% with a hit somewhere; the sample as a whole holds those more often.
Recorded growth inhibition values for a group of compounds are listed next.
Report as a plain number; the unit % is understood.

Examples from the recorded data:
compound: c1ccc2nc(-c3ccc4ccccc4n3)ccc2c1
growth inhibition [%]: -12.2
//
compound: COc1ccc(C(=O)/C=C/c2ccccc2)cc1
growth inhibition [%]: 19.4
//
compound: COC(=O)C1=COC(C)[C@H]2CN3CCc4c([nH]c5cc(OC)ccc45)C3CC12 (stereo partly drawn)
growth inhibition [%]: -9.1
//
compound: COc1ccc(C)cc1C(=O)C[n+]1ccc2ccccc2c1
growth inhibition [%]: 0.15
//
compound: CN(C)c1ccc(NP(=O)(Nc2ccc(N(C)C)cc2)N(CCCl)CCCl)cc1
growth inhibition [%]: 7.6

## Task Return the recorded growth inhibition value; entry: CCOP(N)(=O)SC (stereo not drawn)
## Result 23.6

## Task Return the recorded growth inhibition value; entry: S=C(N=Nc1ccccc1)NNc1ccccc1.[Cu+2]
## Result -15.2

## Task Return the recorded growth inhibition value; entry: CCN1CCC2OCOC2C1 (stereo not drawn)
## Result 33.6

----------
Test: NCI Yeast Anticancer Drug Screen. Data for the rad50 strain (AID 155);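 also: 0% = growth of vehicle-only cultures of the same strain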
Details: S. cerevisiae rad50 strain growth inhibition; at 50.0 µM
This is part of a sample that, as a whole, favours compounds with a hit. Of some 79,000 tested, about 15% had one in any assay. The source made the active and inactive calls. Rule as the data show it: active = growth inhibition above about 70%; inactive = the rest.
Answer with one of the outcomes 1 = active, 0 = inactive

A selection of reference data follows.
compound: Oc1ccccc1C=NC1CCCCC1N=Cc1ccccc1O.[Ni] (configuration not stated)
label-class: 0
--
compound: O=c1cc(N2CCNCC2)nc2ccccn12
label-class: 0
--
compound: N#CNC(N)=S
label-class: 0

## Task Hi team, can someone confirm the assay call for CCN(CC)CCc1ccncc1 ?
## Result 0

## Task Hi team, can someone confirm the assay call for COc1ccccc1-n1c(C)nc2ccccc2c1=O ?
## Result 0

----------
Recorded growth inhibition values for a group of compounds are listed next.
Test: NCI Yeast Anticancer Drug Screen. Data for the mec2-1 strain (AID 157)
Settings: S. cerevisiae mec2-1 strain, at 50.0 µM, active compounds read high
This is part of a sample that, as a whole, favours compounds with a hit. Of some 79,000 tested, about 15% had one in any assay.
Report as a plain number; the unit % is understood.

Examples from the recorded data:
compound: CCC1C2Cc3ccc(O)cc3C1(CC)CCN2C (centres undefined)
measured-number: -35.2
--
compound: Cc1nc2ccccc2c(=O)n1-c1ccccc1
measured-number: -15.9
--
compound: O=C(O)c1ccccc1Cl
measured-number: -11.5

## Task Return the recorded growth inhibition value; entry: CO/C(=N/N1CC1C(F)(F)F)c1ccncc1 (centres undefined)
## Result 19.2

----------
Assay: NCI Yeast Anticancer Drug Screen. Data for the mlh1 rad18 strain (AID 175)
Settings: S. cerevisiae mlh1 rad18 strain growth inhibition; at 50.0 µM; active compounds read high
Method: Growth inhibition of yeast strains with defined genetic alterations is measured as a screen for potential anti-cancer activity. Selected strains with alterations in DNA damage repair or cell cycle control were exposed to compounds and growth inhibition was measured relative to vehicle treated controls. The strain used in this assay is mlh1 rad18
This is part of a sample that, as a whole, favours compounds with a hit. Of some 79,000 tested, about 15% had one in any assay.
Output schema: class label derived from growth inhibition. Mapping: bucket A (below 20%), bucket B (20% to below 40%), bucket C (40% or more)

A selection of reference data follows.
compound: Cc1cc(CCl)c(O)c(CCl)c1
label-class: bucket B

compound: COP(=S)(c1ccccc1)N(C)C(=O)Oc1cccc(C(C)C)c1 (stereo not given)
label-class: bucket C

compound: C[As+](c1ccccc1)(c1ccccc1)c1cccc2ccccc12
label-class: bucket B

compound: COC1CC2C=CC3C4OC2(/C(C)=C/C(C)C(C(C)O)OC1=O)C3C(O)C(C)C4OC(=O)c1ccc[nH]1 (stereo not given)
label-class: bucket A

compound: O=Cc1ccccc1.[C-]#[O+].[C-]#[O+].[C-]#[O+].[Cr]
label-class: bucket A

compound: Nc1ncn[nH]1
label-class: bucket A

compound: CN(N)/N=N/c1nc[nH]c1[N+](=O)[O-]
label-class: bucket A

compound: CC1(C)N=C(N)N=C(N)N1c1ccc(CCc2cc(Cl)ccc2S(=O)(=O)F)c(Cl)c1
label-class: bucket C

compound: NNc1ccc([N+](=O)[O-])cc1
label-class: bucket C

compound: CN(C)CCNC(=O)c1cc([N+](=O)[O-])cc2c1Oc1ccccc1O2
label-class: bucket A

## Task Band for the recorded growth inhibition of CC1=CP(=O)(OC(C)C)CC(C)=C1Cl (stereo not given) ?
## Result bucket B

## Task Band for the recorded growth inhibition of CC(=O)OC1CCC2(CO)C(CCC3C4CCC(=O)C4(C)CCC32)C1 (stereo not given) ?
## Result bucket B

## Task Band for the recorded growth inhibition of CCOC(=O)/C(=C\c1ccc(N(C)C)cc1)[Se]c1ccccc1 ?
## Result bucket C

## Task Band for the recorded growth inhibition of C=CCOCC1CO1 (stereo not given) ?
## Result bucket A
